Provenance of the data: the supplement of paper PMC10065799

A collection of sequences and their measured SH2 binding enrichment
Target: SHP2-C SH2;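 note: peptide library displayed on the E. coli surface as eCPX fusions, selected cells deep-sequenced, score is each peptide's frequency after selection divided by its frequency in the input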
Experiment: SH2 binding enrichment of the phosphorylated peptide, bacterial display (enrichment ratio); higher = better substrate or ligand; peptides without Tyr show the background

VHFARYLAMNK [HARS1_Y138_P134H] : 0.72
EQLRAYLEGEC [HLA-C_Y183_T187E] : 0.664
ASLLPYFPAIM [IPO4_Y518] : 0.806
VMIYAYLLHRG [PTEN_Y138_C136Y] : 0.741
PTTKTYLPHFD [HBA1_Y43_F44L] : 0.756
NTVDYYDLYGG [PTPN11_Y63_G60V] : 0.692

Okay, now this sequence:
Sure, the documented SH2 binding enrichment for HKETGYVVERP [BCLAF1_Y466_L461H] is 0.401
